The entries below are paired with their reported pKi.
ASSAYED_TARGET: PKA (Homo sapiens, UniProt P17612)
pKi: −log10 of the molar value.

O=C(Cc1cc2c(cc1Cl)OCO2)Nc1nc(-c2c[nH]c3nccc(F)c23)cs1 = > 6.30

Provide measured pKi on PKA (Homo sapiens, UniProt P17612) for `CN1CCN(CCCNS(=O)(=O)c2cccc(CC(=O)Nc3nc(-c4c[nH]c5ncccc45)cs3)c2)CC1` please.
> 6.30

Provide measured pKi on PKA (Homo sapiens, UniProt P17612) for `CN1CCN(S(=O)(=O)c2cccc(CC(=O)Nc3nc(-c4c[nH]c5ncccc45)cs3)c2)CC1` please.
> 6.30

Provide measured pKi on PKA (Homo sapiens, UniProt P17612) for `c1coc(CNc2nc(-c3c[nH]c4ncccc34)cs2)c1` please.
5.30 to 6.30

Provide measured pKi on PKA (Homo sapiens, UniProt P17612) for `CS(=O)(=O)Nc1cccc(CC(=O)Nc2nc(-c3c[nH]c4nccc(Cl)c34)cs2)c1` please.
> 6.30

Provide measured pKi on PKA (Homo sapiens, UniProt P17612) for `CC(=O)Nc1nc(-c2c[nH]c3ncccc23)cs1` please.
5.30 to 6.30

Provide measured pKi on PKA (Homo sapiens, UniProt P17612) for `O=C(Cc1ccccc1)Nc1nnc(-c2c[nH]c3ncccc23)s1` please.
> 6.30

Provide measured pKi on PKA (Homo sapiens, UniProt P17612) for `Nc1ccc(CC(=O)Nc2nc(-c3c[nH]c4ncccc34)cs2)c(Cl)c1` please.
> 6.30

Provide measured pKi on PKA (Homo sapiens, UniProt P17612) for NC(C(=O)Nc1nc(-c2c[nH]c3ncccc23)cs1)c1ccc(F)cc1 (stereo not drawn) please.
> 6.30
